# assay-target: MAGL (Homo sapiens, UniProt Q99685)
# Sequence (Q99685 whole entry, species assumed): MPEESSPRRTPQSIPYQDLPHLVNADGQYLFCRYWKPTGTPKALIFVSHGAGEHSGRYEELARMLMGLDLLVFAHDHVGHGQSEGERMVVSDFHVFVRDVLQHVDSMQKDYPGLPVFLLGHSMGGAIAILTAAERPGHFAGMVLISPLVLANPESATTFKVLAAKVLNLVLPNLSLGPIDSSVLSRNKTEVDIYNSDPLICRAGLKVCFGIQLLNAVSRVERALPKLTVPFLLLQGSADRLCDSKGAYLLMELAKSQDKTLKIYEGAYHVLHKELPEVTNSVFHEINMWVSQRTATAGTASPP
# protocol-text: 2-AG assay: MAGL inhibitory activity by hydrolysis of 2-arachidonoylglycerol to arachidonic acid, followed by mass spectrometry
# Type: biochemical
# assay-setup: 15 min preincubation, 30 min reaction at RT, 8 μM 2-arachidonoylglycerol
# Source text: Compounds of formula (I) were profiled for MAGL inhibitory activity by determining the enzymatic activity by following the hydrolysis of the natural substrate 2-arachidonoylglycerol (2-AG) resulting in arachidonic acid, which can be followed by mass spectrometry. This assay is hereinafter abbreviated “2-AG assay”. […]
attribute-measured: pIC50
Answers are plain numbers, as −log10 of the molar value.

compound	assay-target	pIC50
O=C1CCC2(CN(C(=O)N3CC4(CC(Cc5ccc(S(=O)(=O)C6CC6)cc5)C4)C3)C2)N1 [Example 215]	MAGL (Homo sapiens, UniProt Q99685)	8.49
CS(=O)(=O)c1ccc(O[C@H]2CCC3(C2)CN(C(=O)N2CC4(COC(=O)N4)C2)C3)cc1C(F)(F)F [Example 118]	MAGL (Homo sapiens, UniProt Q99685)	8.60
O=C1NC2(CO1)CN(C(=O)N1CC3(CC[C@@H](Cc4cnc(C(F)(F)F)cn4)C3)C1)C2 [Example 113]	MAGL (Homo sapiens, UniProt Q99685)	9.21

# per-item lookup of pIC50; items listed below
1. CS(=O)(=O)c1cc(C(F)(F)F)ccc1CC1CC2(C1)CN(C(=O)N1CC3(COC(=O)N3)C1)C2 [Example 27]
2. O=C1COCC2(CN(C(=O)N3CC4(CC(Cc5ccc(C(F)(F)F)nc5)C4)C3)C2)N1 [Example 174]
3. CS(=O)(=O)c1cccc(CC2CC3(C2)CN(C(=O)N2CC4(CCC(=O)N4)C2)C3)c1 [Example 9]
4. O=C1COCC2(CN(C(=O)N3CC4(CC[C@H](Cc5ccc(S(=O)(=O)C(F)(F)F)cc5)C4)C3)C2)N1 [Example 235]
5. O=C1NC2(CO1)CN(C(=O)N1CC3(CCN(Cc4ccc(C(F)(F)F)nn4)C3)C1)C2 [Example 158]
6. O=C1CCC2(CN(C(=O)N3CC4(CCC(Cc5nnc(C(F)(F)F)[nH]5)CC4)C3)C2)N1 [Example 323]
7. O=C1CCC2(CN(C(=O)N3CC4(CC(Cn5ncc(C(F)(F)F)n5)C4)C3)C2)N1 [Example 300]
8. O=C1COCC2(CN(C(=O)N3CC4(CC(CNC5(C(F)(F)F)CC5)C4)C3)C2)N1 [Example 89]

1: 9.85; 2: 7.78; 3: 7.69; 4: 8.13; 5: 7.47; 6: 9.77; 7: 7.32; 8: 7.53

Give me pIC50 for each of these compounds, listed below.
1. CS(=O)(=O)c1ccc(CC2CC3(C2)CN(C(=O)N2CC4(COC(=O)N4)C2)C3)cc1C(F)(F)F [Example 44]
2. N#Cc1ccc(CC2CC3(C2)CN(C(=O)N2CC4(COC(=O)N4)C2)C3)cc1C(F)(F)F [Example 353]
3. O=C1CCCC2(CN(C(=O)N3CC4(CC(Cc5cc(C(F)(F)F)n[nH]5)C4)C3)C2)N1 [Example 278]
4. O=C1NC2(CO1)CN(C(=O)N1CC3(CC(N4CC(C(F)(F)F)C4)C3)C1)C2 [Example 80]

1: 9.49; 2: 10.00; 3: 6.32; 4: 8.21
